target: T1, huNav1.7α + β1-β2-β3 (human Nav1.7α co-expressed with human Navβ1, Navβ2 and Navβ3 on cells) (human); experiment: binding FACS, CHO FlpIn cells
T1 construct: also called huNav1.7-beta1-beta2-beta3; CHO FlpIn huNav1.7α + β1-β2-β3
measured.property: EC50 (nM)

binder: F010302317 (VHH, also called F0103387G04(L11V, A12V, K33R, R39Q, S50Y, S56D, T60A, G73R, W78V, S79Y, T83R, V89L, N93R, D99R, N100cI)-FLAG3-HIS6) VHH: EVQLVESGGGVVQPGGSLRLSCAASGPVFNINRMAWYRQAPGKQRELVAYVTPTGDISYADSVKGRFTISRDRSKRVYLQMNSLRPEDTALYYCRALLQPRSYSITRTYWGQGTLVTVSS
scale.unit: nM
value: 6.8
//
binder: F010302329 (VHH, also called F0103387G04(L11V, A12V, K33R, R39Q, S50Y, S56D, T60A, W78V, S79Y, T83R, V89L, N93R, S100R)) VHH: EVQLVESGGGVVQPGGSLRLSCAASGPVFNINRMAWYRQAPGKQRELVAYVTPTGDISYADSVKGRFTISRDGSKRVYLQMNSLRPEDTALYYCRALLQPDRYSNTRTYWGQGTLVTVSS
scale.unit: nM
value: 7.6
//
binder: F010301652 (VHH, also called F0103275B05(L11V, S33R, S50Y, S56D, R76N, T83R, V89L, N93R)) VHH: EVQLVESGGGVVQPGGSLRLSCAASGSIFNINRMAWYRRAPGKQRELVAYSTNGGDTNYADSVKGRFTISRDNAKNVYLQMNSLRPEDTALYYCRALLQPSIYDISRTYWGQGTLVTVSS
scale.unit: nM
value: 61
//
binder: F010302313 (VHH, also called F0103387G04(L11V, A12V, K33R, R39Q, S50Y, S56D, T60A, G73A, W78V, S79Y, T83R, V89L, N93R, N100cI)) VHH: EVQLVESGGGVVQPGGSLRLSCAASGPVFNINRMAWYRQAPGKQRELVAYVTPTGDISYADSVKGRFTISRDASKRVYLQMNSLRPEDTALYYCRALLQPDSYSITRTYWGQGTLVTVSS
scale.unit: nM
value: 38

From: patent US20240002497A1
